Where these numbers come from: ChEMBL document CHEMBL1131578

subject.of.test: Integrin alpha-V/beta-3 (Homo sapiens)
procedure.summary: Inhibition of HUVEC adhesion to fibrinogen-coated plates
readout: IC50 (µM)
Dear colleague, please return just the value in µM, with no unit written.

Exercise: Reported IC50, molecule CCN(CC(=O)N[C@@H](CC(=O)O)C(=O)N[C@@H](CC1CCCCC1)C(=O)O)C(=O)CCCC1CCNCC1 : ____
Key: 1010

----------
subject.of.test: Integrin alpha-V/beta-3 (Homo sapiens)
procedure.summary: Inhibition of HUVEC adhesion to fibronectin-coated plates
condition.notes: huvec
readout: IC50

Exercise: Reported IC50, molecule CCN(CC(=O)N[C@@H](CC(=O)O)C(=O)N[C@@H](CCC1CCCCC1)C(=O)O)C(=O)CCCC1CCNCC1 : ____
Key: > 2400 µM
